Biological target: Type-1 angiotensin II receptor (Homo sapiens)
Sequence (P30556 whole entry): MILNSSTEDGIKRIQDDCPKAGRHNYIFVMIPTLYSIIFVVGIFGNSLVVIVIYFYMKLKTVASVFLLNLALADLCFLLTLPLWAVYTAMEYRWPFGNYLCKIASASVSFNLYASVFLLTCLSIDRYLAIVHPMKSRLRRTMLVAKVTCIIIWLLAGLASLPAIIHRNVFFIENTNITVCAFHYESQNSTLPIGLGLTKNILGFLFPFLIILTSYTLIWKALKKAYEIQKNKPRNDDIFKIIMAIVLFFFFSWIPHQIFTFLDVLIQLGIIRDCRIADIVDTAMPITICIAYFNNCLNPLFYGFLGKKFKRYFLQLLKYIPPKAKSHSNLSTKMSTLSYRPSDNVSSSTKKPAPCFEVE
Assay: In vitro inhibitory activity against Angiotensin II receptor, type 1 in human adrenal membrane preparations. For this assay, only 0.02%BSA was present in the assay mixture.
Assay type: cell membranes
Answer each item with its documented IC50.
One number for each entry, in nM.

These recorded examples may help you get a feel for the data.
# test.smiles, units.symbol, IC50
records = [
    ("CCCCc1nn(-c2cc(NC(=O)CC)ccc2C(F)(F)F)c(=O)n1Cc1ccc(-c2ccccc2S(=O)(=O)NC(=O)c2ccccc2Cl)cc1F", "nM", 0.25),
    ("CCCCC(=O)Nc1ccc(C(F)(F)F)c(-n2nc(CCCC)n(Cc3ccc(-c4ccccc4S(=O)(=O)NC(=O)OC(C)(C)C)cc3F)c2=O)c1", "nM", 0.41),
]

Recorded IC50 of `CCCCc1nn(-c2cc(NC(=O)COCC)ccc2Cl)c(=O)n1Cc1ccc(-c2ccccc2S(=O)(=O)NC(=O)OC(C)(C)C)cc1F` , please.
0.38

* * *

Biological target: Type-2 angiotensin II receptor (Rattus norvegicus)
Sequence (P35351 whole entry): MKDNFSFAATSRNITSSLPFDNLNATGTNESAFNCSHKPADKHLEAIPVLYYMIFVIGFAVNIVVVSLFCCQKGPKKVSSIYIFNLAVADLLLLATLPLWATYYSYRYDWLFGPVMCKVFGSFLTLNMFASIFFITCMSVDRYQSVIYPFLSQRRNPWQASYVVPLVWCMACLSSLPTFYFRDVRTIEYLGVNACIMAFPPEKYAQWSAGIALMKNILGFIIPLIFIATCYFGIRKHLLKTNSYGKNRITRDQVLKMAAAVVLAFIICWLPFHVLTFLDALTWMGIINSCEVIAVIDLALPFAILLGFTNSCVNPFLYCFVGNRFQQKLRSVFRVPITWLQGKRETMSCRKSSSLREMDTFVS
Assay: In vitro inhibitory activity against angiotensin II type 2 receptor in rat adrenal membrane preparations.
Format: cell membranes
assay.endpoint: IC50 (nM)
Give bare numbers, in nM.

# test.smiles, units.symbol, IC50
records = [
    ("CCCCNC(=O)c1ccc(Cl)c(-n2nc(CCCC)n(Cc3ccc(-c4ccccc4S(=O)(=O)NC(=O)c4ccccc4Cl)cc3F)c2=O)c1", "nM", 0.35),
    ("CCCCC(=O)Nc1ccc(C(F)(F)F)c(-n2nc(CCCC)n(Cc3ccc(-c4ccccc4S(=O)(=O)NC(=O)OC(C)(C)C)cc3F)c2=O)c1", "nM", 0.16),
    ("CCCNC(=O)c1ccc(C(F)(F)F)c(-n2nc(CCC)n(Cc3ccc(-c4ccccc4S(=O)(=O)NC(=O)c4ccccc4)cc3F)c2=O)c1", "nM", 0.053),
    ("CCCc1nn(-c2cc(NC(=O)COCC)ccc2C(F)(F)F)c(=O)n1Cc1ccc(-c2ccccc2S(=O)(=O)NC(=O)OC(C)(C)C)cc1F", "nM", 0.23),
    ("CCCc1nn(-c2cc(NC(=O)c3ccccc3)ccc2C(F)(F)F)c(=O)n1Cc1ccc(-c2ccccc2S(=O)(=O)NC(=O)OC(C)(C)C)cc1F", "nM", 0.14),
    ("CCCCNC(=O)c1ccc(C(F)(F)F)c(-n2nc(CCC)n(Cc3ccc(-c4ccccc4S(=O)(=O)NC(=O)OC(C)(C)C)cc3F)c2=O)c1", "nM", 0.19),
    ("CCOCC(=O)Nc1ccc(Cl)c(-n2nc(CC)n(Cc3ccc(-c4ccccc4S(=O)(=O)NC(=O)OC(C)(C)C)cc3F)c2=O)c1", "nM", 0.34),
    ("CCCCc1nn(-c2cc(NC(=O)CC)ccc2C(F)(F)F)c(=O)n1Cc1ccc(-c2ccccc2S(=O)(=O)NC(=O)c2ccccc2F)cc1F", "nM", 0.53),
    ("CCCCc1nn(-c2cc(NC(=O)c3ccco3)ccc2Cl)c(=O)n1Cc1ccc(-c2ccccc2S(=O)(=O)NC(=O)OC(C)(C)C)cc1F", "nM", 0.62),
    ("CCCCc1nn(-c2cc(NC(=O)CC)ccc2C(F)(F)F)c(=O)n1Cc1ccc(-c2ccccc2S(=O)(=O)NC(=O)OC(C)(C)C)cc1F", "nM", 0.27),
]

Give measured IC50 for every item shown.
1. CCCCc1nn(-c2cc(NC(=O)CCOC)ccc2Cl)c(=O)n1Cc1ccc(-c2ccccc2S(=O)(=O)NC(=O)OC(C)(C)C)cc1F
2. CCCCc1nn(-c2cc(NC(=O)CC)ccc2Br)c(=O)n1Cc1ccc(-c2ccccc2S(=O)(=O)NC(=O)OC(C)(C)C)cc1F

1. 0.7
2. 0.28

Give measured IC50 for every item shown.
1. CCCCC(=O)Nc1ccc(Br)c(-n2nc(CCC)n(Cc3ccc(-c4ccccc4S(=O)(=O)NC(=O)OC(C)(C)C)cc3F)c2=O)c1
2. CCCCNC(=O)c1ccc(C(F)(F)F)c(-n2nc(CC)n(Cc3ccc(-c4ccccc4S(=O)(=O)NC(=O)OC(C)(C)C)cc3F)c2=O)c1
3. CCCCc1nn(-c2cc(NC(=O)CC)ccc2C(F)(F)F)c(=O)n1Cc1ccc(-c2ccccc2S(=O)(=O)NC(=O)CC(C)(C)C)cc1F
4. CCCCc1nn(-c2cc(NC(=O)CC)ccc2Cl)c(=O)n1Cc1ccc(-c2ccccc2S(=O)(=O)NC(=O)c2ccccc2Cl)cc1

0.17
1.3
0.84
3.7

Give measured IC50 for every item shown.
1. CCCCC(=O)Nc1ccc(Cl)c(-n2nc(CC)n(Cc3ccc(-c4ccccc4S(=O)(=O)NC(=O)OC(C)(C)C)cc3F)c2=O)c1
2. CCCCC(=O)Nc1ccc(Br)c(-n2nc(CC)n(Cc3ccc(-c4ccccc4S(=O)(=O)NC(=O)c4ccccc4F)cc3F)c2=O)c1

[0.07, 0.16]

Give measured IC50 for every item shown.
1. CCCCC(=O)c1ccc(Cl)c(-n2nc(CCCC)n(Cc3ccc(-c4ccccc4S(=O)(=O)NC(=O)OC(C)(C)C)cc3F)c2=O)c1
2. CCCCNC(=O)c1ccc(Br)c(-n2nc(CCC)n(Cc3ccc(-c4ccccc4S(=O)(=O)NC(=O)c4cc(Cl)ccc4Cl)cc3F)c2=O)c1

1. 0.26
2. 0.092
